# EXPERIMENT_DESCRIPTION: Plasma pharmacokinetics in ferrets, single i.p. dose
# Assay type: in vivo, ferret
# MEASUREMENT_CONTEXT: ferret, plasma, ip, 1 mg/kg
EXPERIMENTAL_READOUT: AUC(0-inf) (ng·h/mL)

In [3]: df
Out[3]:
                                   molecule  experimental_result
0  CCN1CC2(CCN(CCc3cc(F)ccc3F)CC2)O[C@H](C)C1=O [WLB-73502]                 2460

###

# EXPERIMENT_DESCRIPTION: Plasma pharmacokinetics in ferrets, single i.p. dose
# Format: in vivo, ferret
# MEASUREMENT_CONTEXT: ferret, plasma, ip, 1 mg/kg
EXPERIMENTAL_READOUT: Cmax (ng/mL)

>>> print(df.to_string())
                            smiles_notation  experimental_result
0  CCN1CC2(CCN(CCc3cc(F)ccc3F)CC2)O[C@H](C)C1=O                  620

# credit: paper PMC9939367
